Test name: Permeability of the compound at 200 umol/L after 5 hrs by PAMPA
Type: ADME
Experimental setup: read-out: permeability
The reader will find reported Papp at 5 h, 200 µM values listed item by item below.
Record the value in ×10⁻⁶ cm/s, omitting the unit from your answer.

>  <Query smiles>
CC[C@H](C)[C@@H]([C@@H](CC(=O)N1CCC[C@H]1[C@H](OC)[C@@H](C)C(=O)N[C@@H](Cc1ccccc1)c1nc(C(=O)N(C)CCO)cs1)OC)N(C)C(=O)[C@@H](NC(=O)[C@H](C(C)C)N(C)C)C(C)C

>  <Value units>
×10⁻⁶ cm/s

>  <Measurement>
0.077

$$$$

Now look at this one.
Q: Sample `CC[C@H](C)[C@@H]([C@@H](CC(=O)N1CCC[C@H]1[C@H](OC)[C@@H](C)C(=O)N[C@@H](Cc1ccccc1)c1nc(C(=O)NCCc2ccc(N)cc2)cs1)OC)N(C)C(=O)[C@@H](NC(=O)[C@H](C(C)C)N(C)C)C(C)C` — what was its Papp at 5 h, 200 µM?
Ans: 0.3
